The origin of these recorded values is the supplement of paper PMC9170038.

The following sequences are shown together with reported apparent KD of MS2 coat protein values.
- Test system: MS2 coat protein
- TEST DESCRIPTION: apparent KD of MS2 coat protein; designed switch direction (-1 OFF switch, 1 ON switch): 1; higher = weaker reporter binding
- CONDITIONS: Eterna round: R95; input ligand: microRNA oligo, concentration not stated
Kindly provide the numeric value in nM only, without the unit symbol.

Challenge: Entry under review: GUAAAACAUGAGGAUCACCCAUGUAAUAAUAUGGGAGGAUAUCAGAUUUAAUUUAAUUUAUGAGAAGGCCUAAAGU [Mat - Same State 1 - Mod of Eli - D63] (puzzle: Same State 1) . Reported apparent KD of MS2 coat protein?
Response given: 16.4

Next:
Challenge: Reported apparent KD of MS2 coat protein for UCUUGGUUUUUGCUCGUUUUUUGUGUUGAACAUGAGGAUCACCCAUGUAUUGUACAAUCCAAUUUAAUAAUGGUCCG [JMF 48] (puzzle: Sensor for hsa-mir-208a) : what is it?
Response given: 81.7

Challenge: Now consider UGAAUACAUGAGGAUCACCCAUGUCAACGUAGUCGAGGAUAUGGGCAGCCGUGAGGCGUACUAGAAGGCGAAGAGG [JL-ss1-3.07 ViennaUCT mod] (puzzle: Same State 1) and answer again.
Response given: 89.9

----------
- System: MS2 coat protein
- TEST DESCRIPTION: apparent KD of MS2 coat protein; designed switch direction (-1 OFF switch, 1 ON switch): -1; higher = weaker reporter binding
- CONDITIONS: input ligand: FMN 200 uM
Catalogue of apparent KD of MS2 coat protein readings, one per entry.
Give the number; nM is assumed, so skip it.

Solved entries (count: 5):
Challenge: Value lookup for apparent KD of MS2 coat protein; key = AAAUCACAUGAGGAUCACCCAUGUGAGGAUAUGAUACUAUGUACUUCGGUACAUAGUAUCAGAAGGCAUGUGGA [Ex1-3: 89] (Eterna round: R96, puzzle: Exclusion 1)
Response given: 43.1

Challenge: Similarly, GGGUGUGCUAAGGAUAUCGGACCAUCGGGUAACUGAGAAGGUAGCACAUGAGGAUCACCCAUGUGUAACUUGAU [EX6 B.12] (Eterna round: R97, puzzle: Exclusion 6) ?
Response given: 159

Challenge: Same for AAAUUAGCAAGUAGAUCCGACAUGAGGAUCACCCAUGUAAUCUAAUAUUACGCUGCACGAAAGUGCGCUCGUCUUAG [Sensor-V1 #14] (Eterna round: R97, puzzle: Sensor, turn-off variant 1)
Response given: 416

Challenge: Another sequence: CGACUAAACGUGAGGAUAUGCGGUGCCAGAACAUUGCAGAAGGCACAUGAGGAUCACCCAUGUGUGGGAGAAGA [Eternabot (L1) Solution 43] (Eterna round: R97, puzzle: Brourd's mod of Exclusion 4)
Response given: 241

Challenge: What do you have for UGAGAGAGUAUAGGAUAUUAGAGGAGAAUGGUGAUAGAGACAUGAGGAUCACCCAUGUGAGGAGAUAAGAAGGGUAAGAACUCA [AK ExNG2-V2-4] (Eterna round: R96, puzzle: Exclusion NG 2) ?
Response given: 452

Here is the next item to consider.
Challenge: Would you kindly share the measured apparent KD of MS2 coat protein for AUAGGAGGAGGAUAUACAUGAGGAUCACCCAUGUGAUCGCCGUAAAAUGCAGUUAGACGUAGAAGGUCUCCCGG [Eternabot (L2) Solution 77] (Eterna round: R97, puzzle: Exclusion 3) ?
Response given: 36.8
